In Vitro Score listing for selected binders.
target: T1, HLA-A*02:01 (human); assay: REVEAL MHC-peptide binding assay, recombinant HLA
T1 construct: recombinant MHC class I molecule incubated with the synthetic peptide (REVEAL, ProImmune)

| Binder | In Vitro Score |
| --- | --- |
| FWVLRGRKK (synthetic 9-mer variant; the entry already carries the change) | 3.3 % of positive control peptide |
| FWVKRGAKK (synthetic 9-mer variant; the entry already carries the change) | 4.3 % of positive control peptide |
| AFIIFWVLR (synthetic 9-mer variant; the entry already carries the change) | 5.7 % of positive control peptide |
| VAFIIFWVQ (synthetic 9-mer variant; the entry already carries the change) | 5.3 % of positive control peptide |
| WVKRGRKKL (synthetic 9-mer of the CD28-4-1BB junction; mutation: none) | 1.4 % of positive control peptide |
| FWVHRGRKK (synthetic 9-mer variant; the entry already carries the change) | 1.6 % of positive control peptide |
| FIIFWVKRG (synthetic 9-mer of the CD28-4-1BB junction; mutation: none) | 10.1 % of positive control peptide |
| FWVKRGHKK (synthetic 9-mer variant; the entry already carries the change) | 2.6 % of positive control peptide |
